Ref: the supplement of paper PMC10567573

Would you kindly list protein stability index for each of these variants?
B1: IKZF1 (parent)
chain: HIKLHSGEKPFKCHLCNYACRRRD

Variants of: B1
Experiment: protein stability index of a GFP-peptide fusion (GPS, HEK-293T) (PSI 1-6); higher = more stable;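 also: lentivirally expressed fusions sorted by FACS into six bins by GFP to DsRed ratio, PSI derived from sequencing read proportions per bin multiplied by bin number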
Settings: c terminus: a fixed tail appended
Lab note: write the figure by itself, no unit.

Input line: Return value of protein stability index for input "G7S" , no commentary.
Output line: 1.63

Input line: Return value of protein stability index for input "C20H" , no commentary.
Output line: 1.94

Input line: Return value of protein stability index for input "C20A" , no commentary.
Output line: 2.41

Input line: Return value of protein stability index for input "F11I" , no commentary.
Output line: 1.46

Input line: Return value of protein stability index for input "P10V" , no commentary.
Output line: 2.26

Input line: Return value of protein stability index for input "N17K" , no commentary.
Output line: 1.2

Input line: Return value of protein stability index for input "L4P" , no commentary.
Output line: 2.19

Input line: Return value of protein stability index for input "I2H" , no commentary.
Output line: 2.3

Input line: Return value of protein stability index for input "P10R" , no commentary.
Output line: 1.74

Input line: Return value of protein stability index for input "H1A" , no commentary.
Output line: 1.05

Input line: Return value of protein stability index for input "H14A" , no commentary.
Output line: 1.5

Input line: Return value of protein stability index for input "H14I" , no commentary.
Output line: 1.55

Input line: Return value of protein stability index for input "R23Y" , no commentary.
Output line: 1.72

Input line: Return value of protein stability index for input "H5L" , no commentary.
Output line: 1.7

Input line: Return value of protein stability index for input "H5D" , no commentary.
Output line: 2.12

Input line: Return value of protein stability index for input "E8G" , no commentary.
Output line: 2.85

Input line: Return value of protein stability index for input "A19M" , no commentary.
Output line: 1.88

Input line: Return value of protein stability index for input "Y18A" , no commentary.
Output line: 2.04

Input line: Return value of protein stability index for input "L4G" , no commentary.
Output line: 2.21

Input line: Return value of protein stability index for input "F11E" , no commentary.
Output line: 2.17

Input line: Return value of protein stability index for input "E8D" , no commentary.
Output line: 1.72

Input line: Return value of protein stability index for input "C20T" , no commentary.
Output line: 2.08

Input line: Return value of protein stability index for input "E8W" , no commentary.
Output line: 2.28

Input line: Return value of protein stability index for input "D24G" , no commentary.
Output line: 2.04

Input line: Return value of protein stability index for input "F11S" , no commentary.
Output line: 1.64

Input line: Return value of protein stability index for input "K12P" , no commentary.
Output line: 1.78

Input line: Return value of protein stability index for input "K9A" , no commentary.
Output line: 2.11

Input line: Return value of protein stability index for input "A19C" , no commentary.
Output line: 1.64

Input line: Return value of protein stability index for input "K12G" , no commentary.
Output line: 2.38

Input line: Return value of protein stability index for input "R21P" , no commentary.
Output line: 2.39

Input line: Return value of protein stability index for input "L4F" , no commentary.
Output line: 1.92

Input line: Return value of protein stability index for input "Y18I" , no commentary.
Output line: 1.48

Input line: Return value of protein stability index for input "E8C" , no commentary.
Output line: 1.97

Input line: Return value of protein stability index for input "P10A" , no commentary.
Output line: 1.55

Input line: Return value of protein stability index for input "P10K" , no commentary.
Output line: 2.73

Input line: Return value of protein stability index for input "C16L" , no commentary.
Output line: 2.26

Input line: Return value of protein stability index for input "L15S" , no commentary.
Output line: 2.11

Input line: Return value of protein stability index for input "K9V" , no commentary.
Output line: 1.43

Input line: Return value of protein stability index for input "H5I" , no commentary.
Output line: 2.57

Input line: Return value of protein stability index for input "C20S" , no commentary.
Output line: 1.69

Input line: Return value of protein stability index for input "L4I" , no commentary.
Output line: 1.72

Input line: Return value of protein stability index for input "G7C" , no commentary.
Output line: 2.58

Input line: Return value of protein stability index for input "L15E" , no commentary.
Output line: 2.5

Input line: Return value of protein stability index for input "D24Q" , no commentary.
Output line: 1.73

Input line: Return value of protein stability index for input "D24H" , no commentary.
Output line: 2.06

Input line: Return value of protein stability index for input "D24T" , no commentary.
Output line: 2.31
